meta.source: paper PMC3092583

biological target: P. falciparum ENR (PfENR), enoyl-acyl carrier protein reductase (Plasmodium falciparum); construct: gene FabI; assay: biochemical; type: binding
Sequence (Q9BH77 22-432): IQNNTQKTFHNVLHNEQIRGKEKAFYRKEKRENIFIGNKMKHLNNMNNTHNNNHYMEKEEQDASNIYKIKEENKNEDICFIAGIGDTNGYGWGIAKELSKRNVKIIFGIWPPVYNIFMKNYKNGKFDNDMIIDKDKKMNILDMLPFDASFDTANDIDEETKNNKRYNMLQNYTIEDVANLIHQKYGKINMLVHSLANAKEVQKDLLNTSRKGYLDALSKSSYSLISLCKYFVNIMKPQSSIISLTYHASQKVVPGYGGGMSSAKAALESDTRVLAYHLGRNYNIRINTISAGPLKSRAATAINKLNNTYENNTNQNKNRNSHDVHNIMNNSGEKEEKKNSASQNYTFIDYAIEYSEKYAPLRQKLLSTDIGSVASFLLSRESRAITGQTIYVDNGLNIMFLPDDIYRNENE
readout: Kd (µM)
Give bare numbers, in µM.

Problem: # input compound: CCCC(=O)SCCNC(=O)CCNC(=O)[C@H](O)C(C)(C)COP(=O)(O)OP(=O)(O)OC[C@H]1O[C@@H](n2cnc3c(N)ncnc32)[C@H](O)[C@@H]1OP(=O)(O)O ; wanted: its Kd
Result: 1150
